tested system: renin (Homo sapiens)
Construct: This test measures the formation of angiotensin I in human plasma
Sequence (P00797 67-406): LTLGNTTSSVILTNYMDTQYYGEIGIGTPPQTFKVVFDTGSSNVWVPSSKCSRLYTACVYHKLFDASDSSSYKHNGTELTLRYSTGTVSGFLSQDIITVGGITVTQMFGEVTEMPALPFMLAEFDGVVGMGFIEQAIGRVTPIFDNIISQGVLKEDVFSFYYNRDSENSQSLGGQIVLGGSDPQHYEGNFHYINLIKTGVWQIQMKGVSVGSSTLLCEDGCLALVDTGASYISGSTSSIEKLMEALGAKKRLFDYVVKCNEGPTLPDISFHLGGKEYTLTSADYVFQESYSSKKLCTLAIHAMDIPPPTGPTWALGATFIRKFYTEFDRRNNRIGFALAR
method: in vitro test of Nussberger et al.: formation of angiotensin I in human plasma, determined by radioimmunoassay
experimental setup: concentration of inhibitor which reduces the formation of angiotensin I in human plasma by 50%
observed property: IC50 (nM)
// return numeric value only (unit: nM, not printed)

Answered cases to consult:
1. COCCCN1CCOc2ccc(CO[C@H]3CNCC[C@]3(OCC3CCCC3)c3ccc(COCCOC)cc3)cc21 ... 92.5
2. COCCCN1CCOc2ccc(CO[C@H]3CNCC[C@]3(OCCOC)c3ccc(COCCOC)cc3)cc21 ... 26.5
3. COCCCO[C@]1(c2ccc(COC[C@@H](C)COC)cc2)CCNC[C@@H]1OCc1ccc2c(c1)N(CCCOC)CCO2 ... 3
4. COCCCN1CCOc2ccc(CO[C@H]3CNCC[C@]3(OC[C@@H](O)COC)c3ccc(COCCOC)cc3)cc21 ... 9.5
5. COCCCN1CCOc2ccc(CO[C@H]3CNCC[C@]3(OC[C@H](O)COC)c3ccc(COCCOC)cc3)cc21 ... 10.4

Inquiry: Look up and report IC50, with renin (Homo sapiens) as system, for COCCCN1CCOc2ccc(CO[C@H]3CNCC[C@]3(OCC#N)c3ccc(COC[C@@H](C)COC)cc3)cc21
Reply text: 7.5

These measurements were taken from patent US20100256146A1.
